Measured Km by item
# Tested on: PTP1B
# PROTOCOL DESCRIPTION: Phosphatase activity of PTP1B constructs against pNPP (enzyme assay)
# Assay type: biochemical, human
# STATED CONDITIONS: pNPP substrate, pH 7.5, 0.015 μM PTP1B (FIG. 27, 32A, 32B)
REPORTED ENDPOINT: Km (µM)

[[record]]
molecule = "PTP1BE297A: PTP1B1-301 mutant with point mutation in the α7 helix (protein, UniProt P18031 1-301, looked up, variant E297A) MEMEKEFEQIDKSGSWAAIYQDIRHEASDFPCRVAKLPKNKNRNRYRDVSPFDHSRIKLHQEDNDYINASLIKMEEAQRSYILTQGPLPNTCGHFWEMVWEQKSRGVVMLNRVMEKGSLKCAQYWPQKEEKEMIFEDTNLKLTLISEDIKSYYTVRQLELENLTTQETREILHFHYTTWPDFGVPESPASFLNFLFKVRESGSLSPEHGPVVVHCSAGIGRSGTFCLADTCLLLMDKRKDPSSVDIKKVLLEMRKFRMGLIQTADQLRFSYLAVIEGAKFIMGDSSVQDQWKELSHADLEP"
reported_endpoint = "Km"
recorded_result = 720

[[record]]
molecule = "PTP1BD298A: PTP1B1-301 mutant with point mutation in the α7 helix (protein, UniProt P18031 1-301, looked up, variant D298A) MEMEKEFEQIDKSGSWAAIYQDIRHEASDFPCRVAKLPKNKNRNRYRDVSPFDHSRIKLHQEDNDYINASLIKMEEAQRSYILTQGPLPNTCGHFWEMVWEQKSRGVVMLNRVMEKGSLKCAQYWPQKEEKEMIFEDTNLKLTLISEDIKSYYTVRQLELENLTTQETREILHFHYTTWPDFGVPESPASFLNFLFKVRESGSLSPEHGPVVVHCSAGIGRSGTFCLADTCLLLMDKRKDPSSVDIKKVLLEMRKFRMGLIQTADQLRFSYLAVIEGAKFIMGDSSVQDQWKELSHEALEP"
reported_endpoint = "Km"
recorded_result = 480

[[record]]
molecule = "PTP1BS295A/E297A: PTP1B1-301 double mutant in the α7 helix (protein, UniProt P18031 1-301, looked up, variant S295A E297A) MEMEKEFEQIDKSGSWAAIYQDIRHEASDFPCRVAKLPKNKNRNRYRDVSPFDHSRIKLHQEDNDYINASLIKMEEAQRSYILTQGPLPNTCGHFWEMVWEQKSRGVVMLNRVMEKGSLKCAQYWPQKEEKEMIFEDTNLKLTLISEDIKSYYTVRQLELENLTTQETREILHFHYTTWPDFGVPESPASFLNFLFKVRESGSLSPEHGPVVVHCSAGIGRSGTFCLADTCLLLMDKRKDPSSVDIKKVLLEMRKFRMGLIQTADQLRFSYLAVIEGAKFIMGDSSVQDQWKELAHADLEP"
reported_endpoint = "Km"
recorded_result = 580

[[record]]
molecule = "PTP1BF194A: PTP1B1-301 mutant with mutation in the α3 helix (protein, UniProt P18031 1-301, looked up, fragment F194A) MEMEKEFEQIDKSGSWAAIYQDIRHEASDFPCRVAKLPKNKNRNRYRDVSPFDHSRIKLHQEDNDYINASLIKMEEAQRSYILTQGPLPNTCGHFWEMVWEQKSRGVVMLNRVMEKGSLKCAQYWPQKEEKEMIFEDTNLKLTLISEDIKSYYTVRQLELENLTTQETREILHFHYTTWPDFGVPESPASFLNALFKVRESGSLSPEHGPVVVHCSAGIGRSGTFCLADTCLLLMDKRKDPSSVDIKKVLLEMRKFRMGLIQTADQLRFSYLAVIEGAKFIMGDSSVQDQWKELSHEDLEP"
reported_endpoint = "Km"
recorded_result = 390

[[record]]
molecule = "PTP1BS190A: PTP1B1-301 mutant with mutation in the α3 helix (protein, UniProt P18031 1-301, looked up, variant S190A) MEMEKEFEQIDKSGSWAAIYQDIRHEASDFPCRVAKLPKNKNRNRYRDVSPFDHSRIKLHQEDNDYINASLIKMEEAQRSYILTQGPLPNTCGHFWEMVWEQKSRGVVMLNRVMEKGSLKCAQYWPQKEEKEMIFEDTNLKLTLISEDIKSYYTVRQLELENLTTQETREILHFHYTTWPDFGVPESPAAFLNFLFKVRESGSLSPEHGPVVVHCSAGIGRSGTFCLADTCLLLMDKRKDPSSVDIKKVLLEMRKFRMGLIQTADQLRFSYLAVIEGAKFIMGDSSVQDQWKELSHEDLEP"
reported_endpoint = "Km"
recorded_result = 370

[[record]]
molecule = "PTP1BG283P: PTP1B1-301 mutant with point mutation in the α7 helix (protein, UniProt P18031 1-301, looked up, variant G283P) MEMEKEFEQIDKSGSWAAIYQDIRHEASDFPCRVAKLPKNKNRNRYRDVSPFDHSRIKLHQEDNDYINASLIKMEEAQRSYILTQGPLPNTCGHFWEMVWEQKSRGVVMLNRVMEKGSLKCAQYWPQKEEKEMIFEDTNLKLTLISEDIKSYYTVRQLELENLTTQETREILHFHYTTWPDFGVPESPASFLNFLFKVRESGSLSPEHGPVVVHCSAGIGRSGTFCLADTCLLLMDKRKDPSSVDIKKVLLEMRKFRMGLIQTADQLRFSYLAVIEGAKFIMPDSSVQDQWKELSHEDLEP"
reported_endpoint = "Km"
recorded_result = 850

[[record]]
molecule = "PTP1BL294A: PTP1B1-301 mutant with point mutation in the α7 helix (protein, UniProt P18031 1-301, looked up, variant L294A) MEMEKEFEQIDKSGSWAAIYQDIRHEASDFPCRVAKLPKNKNRNRYRDVSPFDHSRIKLHQEDNDYINASLIKMEEAQRSYILTQGPLPNTCGHFWEMVWEQKSRGVVMLNRVMEKGSLKCAQYWPQKEEKEMIFEDTNLKLTLISEDIKSYYTVRQLELENLTTQETREILHFHYTTWPDFGVPESPASFLNFLFKVRESGSLSPEHGPVVVHCSAGIGRSGTFCLADTCLLLMDKRKDPSSVDIKKVLLEMRKFRMGLIQTADQLRFSYLAVIEGAKFIMGDSSVQDQWKEASHEDLEP"
reported_endpoint = "Km"
recorded_result = 730

